assay: in vitro; conditions: human, Caco-2, Caco-2 (cm/sec)
*1 amine or outer side, *2 acyl side, *3 side chain or, on linkers, in order; H or OH if unused. Where a SMILES comes first, the peptide text is derived from it. Bridges are numbered along the chain shown (N, C = ends). [ ]: non-standard residue; d: D form. The star is where a group is joined. dhPhe(4-CONHMe,3-OMe) = CNC(=O)c1ccc(CC[C@@H](N)C(=O)O)cc1OC; hhPhe = N[C@@H](CCCc1ccccc1)C(=O)O; NMeF = CN[C@@H](Cc1ccccc1)C(=O)O; NMeGABA = CN(CCCC(=O)[*:2])[*:1]; NMeI = CC[C@H](C)[C@H](NC)C(=O)O; NMeL = CN[C@@H](CC(C)C)C(=O)O; NMeA = CN[C@@H](C)C(=O)O; Piperidide = C1CCN(*)CC1; Isopentyl = CC(C)CC*; NPrGly = CCCNCC(=O)O; X3 = C[C@H](O)C*; Sar = CNCC(=O)O; tBu = CC(C)(C)*
measured quantity: Papp (×10⁻⁶ cm/s)
Unit ×10⁻⁶ cm/s implied. Number only.

Ask: Returns the measured Papp for the input compound. Input: CC(C)C[C@@H]1NC(=O)[C@H](Cc2ccccc2)N(C)C(=O)[C@H](COC(C)(C)C)NC(=O)[C@H](Cc2ccccc2)N(C)C(=O)[C@H](C)N(C)C(=O)[C@H](CC(C)C)N(C)C(=O)[C@@H](C)NC(=O)C[C@@H](C(=O)N2CCCCC2)NC(=O)[C@H](Cc2ccccc2)N(C)C(=O)[C@H]([C@@H](C)O)NC(=O)[C@H](CC(C)C)N(C)C1=O [pd220] ([dA][NMeL][NMeA][NMeF]S(tBu)[NMeF]L[NMeL]T[NMeF]D-Piperidide; lactam N-11)
Result: 1.1

Ask: Any idea what Papp was measured for CC[C@H](C)[C@H]1C(=O)N[C@H](C(=O)N2CCCCC2)CC(=O)N(C)CC(=O)N(C)[C@@H](Cc2ccccc2)C(=O)N[C@@H](CCCc2ccccc2)C(=O)N(C)[C@@H](CC(C)C)C(=O)N[C@@H]([C@@H](C)O)C(=O)N(C)CC(=O)N(C)[C@@H](Cc2ccccc2)C(=O)N(C)[C@@H](CC(C)C)C(=O)N[C@@H](COC(C)(C)C)C(=O)N1C [pd189] ([Sar][NMeF][hhPhe][NMeL]T[Sar][NMeF][NMeL]S(tBu)[NMeI]D-Piperidide; lactam N-11) ?
Result: 1.8

Ask: Please look up its Papp: CC[C@H](C)[C@@H]1NC(=O)[C@H](CC(C)C)N(C)C(=O)CCCN(C)C(=O)C[C@@H](C(=O)N2CCCCC2)NC(=O)[C@H](CC(C)C)N(C)C(=O)[C@H](CC(C)C)N(C)C(=O)[C@H]([C@@H](C)O)NC(=O)[C@H](CC(C)C)N(C)C(=O)[C@@H](CCc2ccc(C(=O)NC)c(OC)c2)NC(=O)[C@H](CC(C)C)N(C)C(=O)[C@H](Cc2ccccc2)N(C)C1=O [AP210] ([NMeGABA][NMeL]I[NMeF][NMeL][dhPhe(4-CONHMe,3-OMe)][NMeL]T[NMeL][NMeL]D-Piperidide; lactam N-11)
Result: 0.34

Ask: I'd like to know its Papp. The compound in question is CCCN1CC(=O)N(C)[C@@H](CC(C)C)C(=O)N[C@@H](COCCC(C)C)C(=O)N(C)[C@@H](Cc2ccccc2)C(=O)N(C)[C@@H](CC(C)C)C(=O)N[C@H](C(=O)N2CCCCC2)CC(=O)N[C@H](C(C)C)C(=O)N(C)[C@@H](Cc2ccccc2)C(=O)N[C@@H](COC[C@H](C)O)C(=O)N(C)[C@@H](CC(C)C)C(=O)N[C@@H]([C@@H](C)O)C1=O [AP61] ([dV][NMeF]S(X3)[NMeL]T[NPrGly][NMeL]S(Isopentyl)[NMeF][NMeL]D-Piperidide; lactam N-11)
Result: 0.51
